System: UACC-257 melanoma
assay comment: NCI tumour cell line growth inhibition, 48 h
reported property: TGI

Exam item: Find the measured TGI of Nc1cccc(C#Cc2cccc(C#Cc3cccc(N)n3)n2)n1 and report it.
Marked response: > 100 µM

Exam item: Find the measured TGI of C1=NCCNCCN=Cc2ccccc2OCc2cccc(n2)COc2ccccc21 and report it.
Marked response: > 100 µM

Exam item: Find the measured TGI of CC(=O)OCC1OC(n2c(C)c(C(C)=O)c(-c3cccc4ccccc34)c(C#N)c2=S)C(OC(C)=O)C(OC(C)=O)C1OC(C)=O (stereo not drawn) and report it.
Marked response: > 100 µM

----------
Test system: 786-0 renal
assay comment: NCI tumour cell line growth inhibition, 48 h
reported property: TGI (µM)
Entry rule: numbers only, all in µM.

Exam item: Find the measured TGI of CCSC(=O)/C=C1\CN(C(=O)OC(C)(C)C)C1C(=O)OC(C)(C)C (stereo unspecified) and report it.
Marked response: 6.23

Exam item: Find the measured TGI of OCCNCCNc1c2ccccc2nc2oc3ccccc3c12 and report it.
Marked response: 22.2

Exam item: Find the measured TGI of COC(=O)/C=C(/C(=O)OC)c1c(C)cc2c(C)cc(C)cc(C)c1-2 and report it.
Marked response: 41.1

----------
Test system: RXF-631 renal
assay comment: NCI tumour cell line growth inhibition, 48 h
reported property: TGI

Exam item: Find the measured TGI of Cn1c(=O)c(C(=O)NC(=O)OCc2ccccc2)cn(CCSCCOC(=O)NCCCCCCNC(=O)OCCSCCn2cc(C(=O)NC(=O)OCc3ccccc3)c(=O)n(C)c2=O)c1=O and report it.
Marked response: > 100 µM

Exam item: Find the measured TGI of CS/C(c1ccccc1)=[N+](/C)[O-] and report it.
Marked response: > 100 µM

Exam item: Find the measured TGI of [C-]#[N+]C(C)(C)C[C@H]1CC(C)C2CCC(C)C3([N+]#[C-])CCC(=C)C1[C@H]23 (stereo not given in full) and report it.
Marked response: 6.58 µM

Exam item: Find the measured TGI of CCCCCCCSCC1C(=O)C23C(O)C1CCC2C12COC3(O)C(O)C1C(C)(C)CCC2O (stereo not given) and report it.
Marked response: 22 µM

Exam item: Find the measured TGI of COc1cc(C(=O)CC2(O)C(=O)Nc3c(Cl)cc(Cl)cc32)ccc1O (stereo not given) and report it.
Marked response: > 100 µM

----------
What TGI was measured for each of the following?
Tested on: LOX IMVI melanoma
assay comment: NCI tumour cell line growth inhibition, 48 h

Exam item: Find the measured TGI of Cc1cc(=O)oc2cc(OCc3nc4ccccc4c(=O)[nH]3)ccc12 and report it.
Marked response: > 100 µM

Exam item: Find the measured TGI of [C-]#[N+]C1(C(=O)OCC)CC1 and report it.
Marked response: > 100 µM

Exam item: Find the measured TGI of O=C(Cc1ccccc1)NNc1nc(NNC(=O)c2ccncc2)nc(Nc2ccc(Cl)cc2)n1 and report it.
Marked response: > 10 µM

Exam item: Find the measured TGI of C=CCCCCCC(O)C(O)C/C=C\C/C=C\CC (configuration not stated) and report it.
Marked response: > 18.8 µM

Exam item: Find the measured TGI of COC(=O)c1c(O)ccc2c1c1c(n2-c2ccc(OC)cc2)C(=O)c2ccccc2C1=O and report it.
Marked response: > 100 µM

Exam item: Find the measured TGI of S=C(Nc1ccccc1)N(Cc1ccccc1)c1ccccc1 and report it.
Marked response: > 100 µM

Exam item: Find the measured TGI of O=C1c2c(nc3ccccc3c2-c2ccccc2)CN1Nc1ccccc1 and report it.
Marked response: > 100 µM
